- system_name: DLG1_3, Q12959
- Sequence (Q12959 457-571): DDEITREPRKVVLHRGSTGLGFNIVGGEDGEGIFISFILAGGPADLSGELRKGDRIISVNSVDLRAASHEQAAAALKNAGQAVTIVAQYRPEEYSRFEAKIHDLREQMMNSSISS
- method_summary: holdup assay
- Set-up: key: below the threshold = too weak to quantify, mostly under pKd 3.1 to 4
- stated_conditions: plain residues with an end cap or a label only (N-terminal biotin on a linker: ado-ado)
metric: pKd

In [3]: df
Out[3]:
                          binder      reported_result
 0   EKCGKEFSEF [PRKACA, P17612]  below the threshold
 1     QKAPTKEFYA [SDC2, P34741]  below the threshold
 2     APIAGFSSFV [SDK2, Q58EX2]  below the threshold
 3      PYPTADHMLA [JUP, P14923]  below the threshold
 4    ELSATVTTDC [TRIP6, Q15654]                 4.02
 5   AAVENKVTDL [PLXNB1, O43157]  below the threshold
 6  ARGPPRESEV [FAM110D, Q8TAY7]                 4.36
 7     QSGLYESEEL [MYOT, Q9UBF9]  below the threshold
 8  SVTSERETNI [SLC16A7, O60669]  below the threshold
 9   NTLNRKTTPV [CACNG8, Q8WXS5]                 4.33
10     DFLSTFHIRI [CIB2, O75838]  below the threshold
11   RDPPAEWTRV [PTPN18, Q99952]  below the threshold
12   EDLEDEWEVI [TECPR2, O15040]  below the threshold
13    MHIQEKGFHV [EPHA6, Q9UF33]  below the threshold
14  MQHQRTHTRV [ZSCAN30, Q86W11]                 3.81
15    RQKEVRESKC [SCN8A, Q9UQD0]                 4.13
